Assay system: T315I Abl kinase (SEQ ID NO:2) (Homo sapiens, UniProt P00519, T315I)
Procedure details: T315I Abl kinase (SEQ ID NO:2) assay, pyruvate kinase/lactate dehydrogenase coupled
Condition parameters: 1 h preincubation, ATP 500 μM; read-out: Biochemical IC50, Abl T315I Enzyme Assay
pIC50: −log10 of the molar value.
So I've got a bunch of compounds here, and I need their pIC50 values.

Cn1cc(-c2cc(Oc3ccc(NC(=O)Nc4cnn(C(C)(C)C)c4C(F)(F)F)c(F)c3)ccn2)cn1 [Example 9] = > 4.00
Cn1cc(-c2cc(Oc3ccc(NC(=O)Nc4cc(C(C)(C)C)no4)c(F)c3F)ccn2)cn1 [Example 25] = > 7.00
Cc1nn(C(C)C)cc1NC(=O)Nc1ccc(Oc2ccnc(-c3cnn(C)c3)c2)cc1F [Example 20] = > 7.00
Cc1cc(NC(=O)Nc2ccc(Oc3ccnc(-c4cnn(C)c4)c3)cc2F)nn1C(C)(C)C [Example 38] = > 6.00
Cn1cc(-c2cc(Oc3ccc(NC(=O)Nc4ccn(C(C)(C)C)c4)c(F)c3)ccn2)cn1 [Example 30] = > 7.00

// batch mode: one pIC50 value per listed entry
1. Cn1cc(-c2cc(Oc3ccc(NC(=O)Nc4cnn(C(C)(C)C)c4)c(F)c3)ccn2)cn1 [Example 5]
2. Cn1cc(-c2cc(Oc3ccc(NC(=O)Nc4cc(C(F)(F)F)c[nH]c4=O)c(F)c3)ccn2)cn1 [Example 27]
3. Cn1cc(-c2cc(Oc3ccc(NC(=O)Nc4cc(C5CC5)nn4C)c(F)c3)ccn2)cn1 [Example 33]

## Result
["> 7.00", "> 7.00", "> 6.00"]
